The reader will find reported MIC values listed item by item below.
tested on: Escherichia coli; experiment: Antibacterial activity against Escherichia coli MTCCB 1610; type: functional
Where a SMILES comes first, the peptide text is derived from it. [ ]: non-standard residue; d: D form. The star is where a group is joined. Desaminotyrosyl = O=C(CCc1ccc(O)cc1)*; X1 = O=C(/C=C/c1ccc(O)cc1)*; Orn = NCCC[C@H](N)C(=O)O; X2 = O=C(/C=C/c1ccccc1)*
MEASUREMENT TYPE: MIC (µg/mL)

INSERT INTO results (compound, units_label, qualifier_operator, value_measured) VALUES
  ('NCCC[C@H](NC(=O)/C=C/c1ccc(O)cc1)C(=O)N[C@@H](CCCN)C(=O)N[C@@H](Cc1c[nH]c2ccccc12)C(=O)N[C@@H](Cc1c[nH]c2ccccc12)C(N)=O (X1-[Orn][Orn]WW-NH2)', 'µg/mL', '=', 16),
  ('NCCC[C@H](NC(=O)/C=C/c1ccccc1)C(=O)N[C@@H](CCCN)C(=O)N[C@@H](Cc1c[nH]c2ccccc12)C(=O)N[C@@H](Cc1c[nH]c2ccccc12)C(N)=O (X2-[Orn][Orn]WW-NH2)', 'µg/mL', '=', 2),
  ('NCCC[C@H](NC(=O)/C=C/c1ccc(O)cc1)C(=O)N[C@@H](CCCN)C(=O)N[C@@H](Cc1c[nH]c2ccccc12)C(=O)N[C@@H](Cc1c[nH]c2ccccc12)C(=O)O (X1-[Orn][Orn]WW-OH)', 'µg/mL', '=', 64),
  ('NCCC[C@H](NC(=O)[C@@H](N)CCCN)C(=O)N[C@@H](Cc1c[nH]c2ccccc12)C(=O)N[C@@H](Cc1c[nH]c2ccccc12)C(N)=O (H-[Orn][Orn]WW-NH2)', 'µg/mL', '=', 512),
  ('NCCC[C@H](NC(=O)CCc1ccc(O)cc1)C(=O)N[C@@H](CCCN)C(=O)N[C@@H](Cc1c[nH]c2ccccc12)C(=O)N[C@@H](Cc1c[nH]c2ccccc12)C(N)=O (Desaminotyrosyl-[Orn][Orn]WW-NH2)', 'µg/mL', '=', 2),
  ('NCCC[C@H](NC(=O)/C=C/c1ccc(O)cc1)C(=O)N[C@@H](CCCN)C(=O)N[C@@H](Cc1ccccc1)C(=O)N[C@@H](Cc1ccccc1)C(N)=O (X1-[Orn][Orn]FF-NH2)', 'µg/mL', '=', 4),
  ('CC(=O)N[C@@H](CCCN)C(=O)N[C@@H](CCCN)C(=O)N[C@@H](Cc1c[nH]c2ccccc12)C(=O)N[C@@H](Cc1c[nH]c2ccccc12)C(N)=O (Ac-[Orn][Orn]WW-NH2)', 'µg/mL', '=', 32),
  ('CN(C)[C@@H]1C(O)=C(C(N)=O)C(=O)[C@@]2(O)C(O)=C3C(=O)c4c(O)cccc4[C@@](C)(O)[C@H]3C[C@@H]12', 'µg/mL', '=', 0.5),
  ('NC(=O)[C@H](Cc1c[nH]c2ccccc12)NC(=O)[C@H](Cc1c[nH]c2ccccc12)NC(=O)/C=C/c1ccc(O)cc1', 'µg/mL', '<', 512);

---

The reader will find reported MIC values listed item by item below.
tested on: Pseudomonas aeruginosa; experiment: Antibacterial activity against Pseudomonas aeruginosa MTCCB 741; assay type: functional
Where a SMILES comes first, the peptide text is derived from it. [ ]: non-standard residue; d: D form. The star is where a group is joined. Desaminotyrosyl = O=C(CCc1ccc(O)cc1)*; X1 = O=C(/C=C/c1ccc(O)cc1)*; Orn = NCCC[C@H](N)C(=O)O; X2 = O=C(/C=C/c1ccccc1)*
MEASUREMENT TYPE: MIC (µg/mL)

INSERT INTO results (compound, measurement_target, units_label, value_measured) VALUES
  ('CC(=O)N[C@@H](CCCN)C(=O)N[C@@H](CCCN)C(=O)N[C@@H](Cc1c[nH]c2ccccc12)C(=O)N[C@@H](Cc1c[nH]c2ccccc12)C(N)=O (Ac-[Orn][Orn]WW-NH2)', 'Pseudomonas aeruginosa', 'µg/mL', 128),
  ('NCCC[C@H](NC(=O)/C=C/c1ccccc1)C(=O)N[C@@H](CCCN)C(=O)N[C@@H](Cc1c[nH]c2ccccc12)C(=O)N[C@@H](Cc1c[nH]c2ccccc12)C(N)=O (X2-[Orn][Orn]WW-NH2)', 'Pseudomonas aeruginosa', 'µg/mL', 16),
  ('NCCC[C@H](NC(=O)/C=C/c1ccc(O)cc1)C(=O)N[C@@H](CCCN)C(=O)N[C@@H](Cc1c[nH]c2ccccc12)C(=O)N[C@@H](Cc1c[nH]c2ccccc12)C(=O)O (X1-[Orn][Orn]WW-OH)', 'Pseudomonas aeruginosa', 'µg/mL', 64),
  ('NCCC[C@H](NC(=O)[C@@H](N)CCCN)C(=O)N[C@@H](Cc1c[nH]c2ccccc12)C(=O)N[C@@H](Cc1c[nH]c2ccccc12)C(N)=O (H-[Orn][Orn]WW-NH2)', 'Pseudomonas aeruginosa', 'µg/mL', 256),
  ('NCCC[C@H](NC(=O)CCc1ccc(O)cc1)C(=O)N[C@@H](CCCN)C(=O)N[C@@H](Cc1c[nH]c2ccccc12)C(=O)N[C@@H](Cc1c[nH]c2ccccc12)C(N)=O (Desaminotyrosyl-[Orn][Orn]WW-NH2)', 'Pseudomonas aeruginosa', 'µg/mL', 32),
  ('NCCC[C@H](NC(=O)/C=C/c1ccc(O)cc1)C(=O)N[C@@H](CCCN)C(=O)N[C@@H](Cc1c[nH]c2ccccc12)C(=O)N[C@@H](Cc1c[nH]c2ccccc12)C(N)=O (X1-[Orn][Orn]WW-NH2)', 'Pseudomonas aeruginosa', 'µg/mL', 2);

---

tested on: Bacillus subtilis; test: Antibacterial activity against Bacillus subtilis NCIM 2063; assay type: functional
Where a SMILES comes first, the peptide text is derived from it. [ ]: non-standard residue; d: D form. The star is where a group is joined. X1 = O=C(/C=C/c1ccc(O)cc1)*; Orn = NCCC[C@H](N)C(=O)O; X2 = O=C(/C=C/c1ccccc1)*
The reader will find reported MIC values listed item by item below.
MEASUREMENT TYPE: MIC

INSERT INTO assay_data (compound, measurement_target, value_measured) VALUES
  ('NCCC[C@H](NC(=O)/C=C/c1ccccc1)C(=O)N[C@@H](CCCN)C(=O)N[C@@H](Cc1c[nH]c2ccccc12)C(=O)N[C@@H](Cc1c[nH]c2ccccc12)C(N)=O (X2-[Orn][Orn]WW-NH2)', 'Bacillus subtilis', '32 µg/mL'),
  ('NCCC[C@H](NC(=O)/C=C/c1ccc(O)cc1)C(=O)N[C@@H](CCCN)C(=O)N[C@@H](Cc1c[nH]c2ccccc12)C(=O)N[C@@H](Cc1c[nH]c2ccccc12)C(=O)O (X1-[Orn][Orn]WW-OH)', 'Bacillus subtilis', '128 µg/mL'),
  ('NCCC[C@H](NC(=O)[C@@H](N)CCCN)C(=O)N[C@@H](Cc1c[nH]c2ccccc12)C(=O)N[C@@H](Cc1c[nH]c2ccccc12)C(N)=O (H-[Orn][Orn]WW-NH2)', 'Bacillus subtilis', '512 µg/mL'),
  ('NC(=O)[C@H](Cc1c[nH]c2ccccc12)NC(=O)[C@H](Cc1c[nH]c2ccccc12)NC(=O)/C=C/c1ccc(O)cc1', 'Bacillus subtilis', '1 µg/mL');

---

The reader will find reported MIC values listed item by item below.
system: Pseudomonas aeruginosa; assay: Antibacterial activity against Pseudomonas aeruginosa MTCCB 741; assay type: functional
Where a SMILES comes first, the peptide text is derived from it. [ ]: non-standard residue; d: D form. The star is where a group is joined. X1 = O=C(/C=C/c1ccc(O)cc1)*; Orn = NCCC[C@H](N)C(=O)O
MEASUREMENT TYPE: MIC

INSERT INTO results (compound, value_measured) VALUES
  ('NC(=O)[C@H](Cc1c[nH]c2ccccc12)NC(=O)[C@H](Cc1c[nH]c2ccccc12)NC(=O)/C=C/c1ccc(O)cc1', '< 512 µg/mL'),
  ('NCCC[C@H](NC(=O)/C=C/c1ccc(O)cc1)C(=O)N[C@@H](CCCN)C(=O)N[C@@H](Cc1ccccc1)C(=O)N[C@@H](Cc1ccccc1)C(N)=O (X1-[Orn][Orn]FF-NH2)', '2 µg/mL'),
  ('CN(C)[C@@H]1C(O)=C(C(N)=O)C(=O)[C@@]2(O)C(O)=C3C(=O)c4c(O)cccc4[C@@](C)(O)[C@H]3C[C@@H]12 [TETRACYCLINE]', '1 µg/mL');

---

test system: Bacillus subtilis; test: Antibacterial activity against Bacillus subtilis NCIM 2063; type: functional
Where a SMILES comes first, the peptide text is derived from it. [ ]: non-standard residue; d: D form. The star is where a group is joined. Desaminotyrosyl = O=C(CCc1ccc(O)cc1)*; X1 = O=C(/C=C/c1ccc(O)cc1)*; Orn = NCCC[C@H](N)C(=O)O
The reader will find reported MIC values listed item by item below.
MEASUREMENT TYPE: MIC (mg/L)

INSERT INTO assay_data (compound, measurement_target, measurement_type, value_measured) VALUES
  ('NCCC[C@H](NC(=O)/C=C/c1ccc(O)cc1)C(=O)N[C@@H](CCCN)C(=O)N[C@@H](Cc1ccccc1)C(=O)N[C@@H](Cc1ccccc1)C(N)=O (X1-[Orn][Orn]FF-NH2)', 'Bacillus subtilis', 'MIC', 2),
  ('CN(C)[C@@H]1C(O)=C(C(N)=O)C(=O)[C@@]2(O)C(O)=C3C(=O)c4c(O)cccc4[C@@](C)(O)[C@H]3C[C@@H]12', 'Bacillus subtilis', 'MIC', 0.125),
  ('CC(=O)N[C@@H](CCCN)C(=O)N[C@@H](CCCN)C(=O)N[C@@H](Cc1c[nH]c2ccccc12)C(=O)N[C@@H](Cc1c[nH]c2ccccc12)C(N)=O (Ac-[Orn][Orn]WW-NH2)', 'Bacillus subtilis', 'MIC', 2),
  ('NCCC[C@H](NC(=O)CCc1ccc(O)cc1)C(=O)N[C@@H](CCCN)C(=O)N[C@@H](Cc1c[nH]c2ccccc12)C(=O)N[C@@H](Cc1c[nH]c2ccccc12)C(N)=O (Desaminotyrosyl-[Orn][Orn]WW-NH2)', 'Bacillus subtilis', 'MIC', 2),
  ('NCCC[C@H](NC(=O)/C=C/c1ccc(O)cc1)C(=O)N[C@@H](CCCN)C(=O)N[C@@H](Cc1c[nH]c2ccccc12)C(=O)N[C@@H](Cc1c[nH]c2ccccc12)C(N)=O (X1-[Orn][Orn]WW-NH2)', 'Bacillus subtilis', 'MIC', 1);

# credit: ChEMBL document CHEMBL1140025
